Test: chemical genetic growth profiling, strain panel (AID 1159580);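 also: tested at 20 µM; growth read once vehicle control cultures reached saturation at 30 °C; 1 = growth at the plate median or of vehicle wells; lower values mean less growth of the strain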
Conditions: S. cerevisiae deletion strains, growth OD, locus YNL248C, strain rpa49
The campaign covered roughly 5,500 compounds. About 2,000 (36%) were called active. Not shown: some 18% with an inconclusive outcome. Rule as the data show it: active = normalized growth mostly below about 0.91 (no sharp cut-off); inconclusive = no clear call, values can overlap the other calls; inactive = mostly above about 0.92. The list shows a part of the results.
Choose one outcome from this list and give only that: active, inactive

Below are worked cases with known answers.
>>> qualitative_label("COC(=O)C[C@H]1C(C)(C)C(=O)[C@@H]2CC3C4=CC(=O)O[C@@H](c5ccoc5)[C@]4(C)CCC3[C@@]1(C)C2=O (stereo partly drawn)")
"inactive"
>>> qualitative_label("Cc1ccc(S(=O)(=O)NC(=O)NN2CC3CCCC3C2)cc1 (stereo not drawn)")
"inactive"
>>> qualitative_label("Cc1cc(O)cc(=O)o1")
"inactive"
>>> qualitative_label("CCC(C)C(=O)O[C@H]1[C@H](O)C2C(CN3CC(C)CCC3[C@@]2(C)O)C2C[C@]34O[C@]5(O)C(OC(=O)C(C)(O)CC)CC[C@@]3(C)C5C(OC(C)=O)[C@@H](OC(C)=O)C4[C@@]21O (stereo partly drawn)")
"inactive"
>>> qualitative_label("Cc1cc(O)cc(C)c1Cl")
"active"
>>> qualitative_label("C[C@@H]1CC[C@H]2[C@@H](C)C(=O)O[C@@H]3O[C@@]4(C)CC[C@@H]1[C@]32OO4")
"inactive"
>>> qualitative_label("CC(C)=CCCC1(C)C=Cc2c(O)c3c(c(CC=C(C)C)c2O1)OC12C(=CC4CC1C(C)(C)OC2(C/C=C(/C)C(=O)O)C4=O)C3=O (stereo not drawn)")
"inactive"

Shifting focus to the compound that follows.
input: Assay outcome for COc1ccc2c(c1)c(CC(=O)OCC(=O)O)c(C)n2C(=O)c1ccc(Cl)cc1 : what was it?
output: inactive

====

Assay: chemical genetic growth profiling, strain panel (AID 1159580);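 also: tested at 20 µM; growth read once vehicle control cultures reached saturation at 30 °C; 1 = growth at the plate median or of vehicle wells; lower values mean less growth of the strain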
Conditions: S. cerevisiae deletion strains, growth OD, locus YHR030C, strain SLT2, stronger effect = lower value
Out of some 5,500 compounds screened, about 2,000 (36%) were called active. Another 18% or so got no clear call; they are omitted. This is one part of the list.
Class key for normalized growth values: lo = under 0.9, med = from 0.9 up to 1, hi = 1 and over

input: GET /class?item= O=[N+]([O-])c1cc(Cl)ccc1S(=O)(=O)c1ccccc1
output: lo

input: GET /class?item= O=C(NC1Cc2ccccc2C1)c1cncc(Br)c1
output: lo

====

Assign normalized growth to each entry below.
Test: chemical genetic growth profiling, strain panel (AID 1159580);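 also: tested at 20 µM; growth read once vehicle control cultures reached saturation at 30 °C; 1 = growth at the plate median or of vehicle wells; lower values mean less growth of the strain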
Details: S. cerevisiae deletion strains, growth OD, locus YLR403W, strain SFP1, stronger effect = lower value
About 2,000 (36%) of roughly 5,500 compounds were called active. Another 18% or so got no clear call; they are omitted. Some of the results follow.
Answers are plain numbers.

The examples below pair each entry with its known result.
>>> readout_value("Nc1ccc(Sc2ccccc2)nc1Sc1ccccc1")
0.922
>>> readout_value("Cc1ccc(C)c(CSc2nc(C3CCCCC3)c(C#N)c(=O)[nH]2)c1")
0.999
>>> readout_value("O=[N+]([O-])c1ccc(S(=O)(=O)c2ccccc2)nc1S(=O)(=O)c1ccccc1")
0.748

Could you tell me normalized growth for each of these compounds? They are listed below.
1. O=C(NCC(c1ccccc1)c1c[nH]c2ccccc12)c1ccc(C(F)(F)F)cc1 (stereo unspecified)
2. CC(C)(C)C(=O)N(Cc1cccnc1)Cc1ccc(Cl)cc1Cl
3. O=C(NCCc1ccncc1)c1ccc(Cl)c(Cl)c1

output:
0.985
0.913
0.972

Could you tell me normalized growth for each of these compounds? They are listed below.
1. OC1CCN(c2cc(C(F)(F)F)nc3cc(Cl)cc(Cl)c23)CC1
2. COc1cccc(NC(=S)NC2CC(C)CC(C)(C)C2)c1 (stereo unspecified)
3. Cc1nc(-c2cccnc2)nc(NCc2ccccc2)c1Cl
4. O=S(=O)(c1ccc(Cl)cc1)N(Cc1cccnc1)Cc1ccc(Cl)cc1Cl
5. O=C(c1cccs1)N(Cc1cccnc1)Cc1ccc(Cl)cc1Cl

output:
1: 0.992; 2: 0.938; 3: 0.849; 4: 0.549; 5: 0.965

Numbers sourced from PubChem BioAssay AID1159580.
